These data points were gathered from PubChem BioAssay (NCI).

- System: TK-10 renal
- assay-text: NCI-60 one-dose screen, 48 h
- condition-parameters: 10 µM unless noted
The panel holds about 83,000 compounds, 20% with a hit somewhere; the sample as a whole holds those more often. The source made the active and inactive calls. Rule for the calls: active = growth percent below 10; inactive = the rest.
Classes used: active, inactive

molecule=Cc1cccc(CO)c1 target_entity="TK-10 renal" discrete_label=inactive
molecule="COC(=O)CCCCC1=CCC2C(=O)C=C(O)C2C1 (stereo not given)" target_entity="TK-10 renal" discrete_label=inactive
molecule="CC(CN1CCCCC1)NC(=O)c1scnc1-c1ccccc1 (stereo not given)" target_entity="TK-10 renal" discrete_label=inactive
molecule="O=S(=O)(O)C(Nc1ccccc1)c1ccccc1 (stereo not given)" target_entity="TK-10 renal" discrete_label=inactive
molecule="CCOC(=O)C1=C(C)NC(=O)NC1c1cccs1 (stereo not given)" target_entity="TK-10 renal" discrete_label=inactive
molecule="COc1cc(C2c3cc4c(cc3C3OC(=O)C2C3CO)OCO4)cc(OC)c1OC (stereo not given)" target_entity="TK-10 renal" discrete_label=inactive
molecule=O=c1[nH]cc(Cl)cc1O target_entity="TK-10 renal" discrete_label=inactive
molecule=CCOC(=O)c1coc(C(=O)OCC)c1C(=O)OCC target_entity="TK-10 renal" discrete_label=inactive
molecule=Cn1cnc2nc(Cl)nc(Cl)c21 target_entity="TK-10 renal" discrete_label=active
molecule=CO[C@H]1C[C@@H]2CC[C@@H](C)[C@@](O)(O2)C(=O)C(=O)N2CCCC[C@H]2C(=O)O[C@H]([C@H](C)C[C@@H]2CC[C@@H](O)[C@H](OC)C2)CC(=O)[C@H](C)C=C(C)[C@@H](O)[C@@H](OC)C(=O)[C@H](C)C[C@H](C)/C=C/C=C/C=C1C target_entity="TK-10 renal" discrete_label=inactive
